- Assay explanation: Urinary and fecal excretion in rats
- Format: in vivo, Sprague-Dawley rats
- Measurement setup: after oral harmaline 40.0 mg/kg, 24 h
- Experimental: Access to water was maintained all the time. Samples including blank urine and feces before dosing, urine and feces from 0 to 24 h, 24 to 48 h, and 48 to 72 h after dosing were collected and stored at −80°C until analysis. Urine samples were thawed and an aliquot of 100 μL was processed for detection as described in Section Drug Analysis. Feces were homogenized and then weighed, added 6-folds of acetonitrile, extracted by ultrasonic wave for 1 h and then centrifuged. […]
// reported Cumulative excretion in urine (%) of the analyte for each item listed
Enter your answer as a number in %; do not include the unit.

Substance smiles | Result
Cc1[nH]ccc2c1[nH]c1cc(=O)ccc12 | 0.23
COc1ccc2c(c1)[nH]c1c(C)nccc12 | 0.03
CC1=NCCc2c1[nH]c1cc(O)ccc21 | 1.16

Next, consider the following molecule.
Q. Query: Cumulative excretion in urine (%) of the analyte; subject: `COc1ccc2c3c([nH]c2c1)C(C)=NCC3`
A. 4.00
